Compiled notes: published IC50 values involving Carbonic anhydrase 9 (Homo sapiens, UniProt Q16790).
Please note: IC50 exactly at 0.6 µM is class 0. Only values below 0.6 µM get class 1.

Solved entries:
> print(dat)
                         chemical.structure                     target.or.test.system  class.name
1  O=C(NCCCNS(=O)(=O)c1ccc(Oc2ccccc2)cc1)P(=O)(O)O  Carbonic anhydrase 9 (Homo sapiens, UniProt Q16790)     class 0
2                 O=C(NC1CCCCCCC1)P(=O)(O)O  Carbonic anhydrase 9 (Homo sapiens, UniProt Q16790)     class 0
3  COc1cc(/C=C/C(=O)O)ccc1OCc1cn(-c2ccc([N+](=O)[O-])cc2)nn1  Carbonic anhydrase 9 (Homo sapiens, UniProt Q16790)     class 0

Check if IC50 falls below 0.6 µM for CS(=O)(=O)c1ccc(-n2cc(-c3ccc(F)cc3)c(C(F)(F)F)n2)cc1 .
class 0

Strictly below 0.6 µM in IC50? Cc1ccc(S(=O)(=O)NCC(=O)O)cc1
class 1

Is 0.6 µM strictly greater than the compound's reported IC50? compound: COc1cc(/C=C/C(=O)O)ccc1OCc1cn(-c2cccc(C)c2)nn1
class 0

Strictly below 0.6 µM: is that where IC50 of COc1cc(/C=C/C(=O)O)ccc1OCc1cn(-c2ccc(Cl)cc2)nn1 sits?
class 0

Is IC50 strictly under 0.6 µM for the entry O=P(O)(O)C(Nc1ccc(-c2ccccc2)cc1)P(=O)(O)O ?
class 0

In the record for O=P(O)(O)C(NS(=O)(=O)c1ccc(Cl)cc1)P(=O)(O)O , is IC50 less than 0.6 µM?
class 1

IC50 strictly < 0.6 µM for this compound? O=P(O)(O)C(Nc1cccc(F)c1)P(=O)(O)O
class 0
